# System Name: D(4) dopamine receptor (Homo sapiens, UniProt P21917)
# Sequence (P21917 whole entry): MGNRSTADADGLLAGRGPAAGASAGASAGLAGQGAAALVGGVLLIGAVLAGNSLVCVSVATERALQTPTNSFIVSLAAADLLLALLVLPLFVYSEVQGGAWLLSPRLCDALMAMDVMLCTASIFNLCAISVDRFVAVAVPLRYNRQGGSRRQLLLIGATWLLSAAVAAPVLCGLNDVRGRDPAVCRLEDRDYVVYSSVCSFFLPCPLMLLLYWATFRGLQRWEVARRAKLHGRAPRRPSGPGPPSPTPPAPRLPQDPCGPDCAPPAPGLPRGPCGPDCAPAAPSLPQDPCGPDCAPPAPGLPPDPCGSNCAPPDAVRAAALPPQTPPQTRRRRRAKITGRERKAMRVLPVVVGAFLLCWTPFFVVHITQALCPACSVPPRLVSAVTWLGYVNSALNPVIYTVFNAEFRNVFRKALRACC
# Method Description: Effective concentration for [3H]thymidine uptake in growing CHO cells stably expressing the dopamine D4.2 receptor
Measurement Label: EC50 (nM)
Provide only the numeric value, understood in nM.

Input: Value lookup for EC50; key = `c1ccc(C2=N[C@@H](CN3CCN(c4ccccc4)CC3)CCN2)cc1`
Output: 50

----------
Would you kindly list pKi for each of these compounds?
# System Name: D(1A) dopamine receptor (Bos taurus)
# Sequence (Q95136 whole entry): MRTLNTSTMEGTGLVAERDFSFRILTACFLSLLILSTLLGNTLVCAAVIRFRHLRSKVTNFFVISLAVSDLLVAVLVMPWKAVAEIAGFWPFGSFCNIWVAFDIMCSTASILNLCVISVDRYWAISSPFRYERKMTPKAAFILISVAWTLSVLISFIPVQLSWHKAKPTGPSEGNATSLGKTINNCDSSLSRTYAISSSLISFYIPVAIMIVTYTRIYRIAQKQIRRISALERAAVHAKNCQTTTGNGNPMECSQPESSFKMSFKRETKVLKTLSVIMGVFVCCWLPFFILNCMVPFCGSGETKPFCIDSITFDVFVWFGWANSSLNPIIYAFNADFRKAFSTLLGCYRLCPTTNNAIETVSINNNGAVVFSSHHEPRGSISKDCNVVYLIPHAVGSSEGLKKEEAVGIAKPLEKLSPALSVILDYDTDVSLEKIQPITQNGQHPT
# Method Description: In vitro Binding affinity towards dopamine D1 receptor using bovine striatal membrane preparations and antagonist [3H]-SCH- 23390
Remember, pKi is on a log scale: it is -log10 of the molar concentration.

Input: Sample `O=C1C[C@H](CN2CCN(c3ccccc3)CC2)N=C(c2ccccc2)N1` — what was its pKi?
Output: 4.72

Input: May I ask what pKi has been recorded for `COc1ccc(Br)cc1C1=NCC[C@H](CN2CCN(c3ccccc3)CC2)N1` ?
Output: 4.82

Input: Record request: pKi value, item `COc1ccc(Br)cc1C1=NCC[C@@H](CN2CCN(c3ccccc3)CC2)N1`
Output: 5.04

Input: Form field: reported pKi of `O=C1C[C@@H](CN2CCN(c3ccccc3)CC2)N=C(c2ccccc2)N1`
Output: 5.05

Input: Reported pKi, compound c1ccc(C2=NCC(N3CCN(c4ccccc4)CC3)CCN2)cc1 (single isomer, unassigned) : ____
Output: 4.64
